solubility (mole fraction) reference
Settings: in isopropanol, 300.65 K
PROPERTY: solubility (mole fraction)

> print(dat)
                     smiles.str  assay.value
1    O=[N+]([O-])c1cccc(Cl)c1Cl       0.0452
2  O=[N+]([O-])c1ccc(Cl)c(Cl)c1       0.0981

* * *

Details: in ethyl acetate, 293.15 K
solubility (mole fraction) reference
PROPERTY: solubility (mole fraction)

> print(dat)
                     smiles.str  assay.value
1  O=[N+]([O-])c1ccc(Cl)c(Cl)c1        0.668
2    O=[N+]([O-])c1cccc(Cl)c1Cl        0.521

* * *

Conditions: in isopropanol, 280.65 K
solubility (mole fraction) reference
PROPERTY: solubility (mole fraction)

> print(dat)
                     smiles.str  assay.value
1    O=[N+]([O-])c1cccc(Cl)c1Cl       0.0116
2  O=[N+]([O-])c1ccc(Cl)c(Cl)c1       0.0199

* * *

Details: in n-butanol, 278.15 K
PROPERTY: solubility (mole fraction)

> print(dat)
                     smiles.str                    property  assay.value
1    O=[N+]([O-])c1cccc(Cl)c1Cl  solubility (mole fraction)       0.0254
2  O=[N+]([O-])c1ccc(Cl)c(Cl)c1  solubility (mole fraction)       0.0389

* * *

Conditions: in n-propanol, 300.65 K
PROPERTY: solubility (mole fraction)

> print(dat)
                     smiles.str  assay.value
1    O=[N+]([O-])c1cccc(Cl)c1Cl       0.0511
2  O=[N+]([O-])c1ccc(Cl)c(Cl)c1        0.139

* * *

Conditions: in n-hexane, 285.65 K
PROPERTY: solubility (mole fraction)

> print(dat)
                     smiles.str  assay.value
1  O=[N+]([O-])c1ccc(Cl)c(Cl)c1       0.0476
2    O=[N+]([O-])c1cccc(Cl)c1Cl       0.0134

* * *

solubility (mole fraction) reference
Conditions: in cyclohexane, 278.15 K
PROPERTY: solubility (mole fraction)

> print(dat)
                     smiles.str  assay.value
1  O=[N+]([O-])c1ccc(Cl)c(Cl)c1       0.0568
2    O=[N+]([O-])c1cccc(Cl)c1Cl       0.0137

* * *

Conditions: in tetrachloromethane, 283.15 K
PROPERTY: solubility (mole fraction)

> print(dat)
                     smiles.str  assay.value
1    O=[N+]([O-])c1cccc(Cl)c1Cl        0.097
2  O=[N+]([O-])c1ccc(Cl)c(Cl)c1        0.244

* * *

Conditions: in n-hexane, 280.65 K
solubility (mole fraction) reference
PROPERTY: solubility (mole fraction)

> print(dat)
                     smiles.str  assay.value
1    O=[N+]([O-])c1cccc(Cl)c1Cl      0.00888
2  O=[N+]([O-])c1ccc(Cl)c(Cl)c1       0.0363

* * *

Details: in n-propanol, 303.15 K
solubility (mole fraction) reference
PROPERTY: solubility (mole fraction)

> print(dat)
                     smiles.str  assay.value
1  O=[N+]([O-])c1ccc(Cl)c(Cl)c1        0.173
2    O=[N+]([O-])c1cccc(Cl)c1Cl       0.0575
